# reported growth; entries follow
System: MALME-3M melanoma
Test description: NCI-60 one-dose screen, 48 h (100 = growth as untreated, 0 = no growth, -100 = all killed)
Condition: 10 µM
About 83,000 compounds went through this panel and 20% of them were active in at least one assay; those are over-represented in the sample as a whole.
Just the number in %, nothing appended.

Take a look at these entries with their results.
INSERT INTO results (molecule, numeric_result) VALUES
  ('COc1ccc(-c2onc(N)c2-c2cc(OC)c3c(c2)OCO3)cc1', 29.5),
  ('COc1ccc(-c2nnc(SCC(=O)Nc3ccc(C(=O)/C=C/c4ccccc4)cc3)n2-c2ccccc2)cc1OC', 36.4),
  ('C[C@]12CCC3c4ccc(O)cc4C[C@@H](CCCCCCCCCS(=O)CCCC(F)(F)C(F)(F)F)C3C1CC[C@@H]2O (stereo not given in full)', 103),
  ('O=C(Nc1nc(-c2ccccc2)nc2c1sc(=S)n2-c1ccccc1)C(F)(F)F', 124);

Now look at this entry.
growth recorded for this molecule, `Clc1nc2ccccc2cc1Cn1nnc(Cc2ccccc2)n1` , is 65.6

---

Tested on: SK-MEL-28 melanoma
Test description: NCI-60 one-dose screen, 48 h (100 = growth as untreated, 0 = no growth, -100 = all killed)
Condition: 10 µM
Compounds without any hit were thinned out: in the full panel of roughly 83,000, 20% have a hit.
// boundary case: growth equal to 50% maps to 0 (no); strictly smaller maps to 1 (yes)

INSERT INTO measurements (compound, measured_target, cat) VALUES
  ('CCN1CCN(CCC(=O)Nc2cccc(-n3cc(-c4ccncc4)c(-c4ccc(Cl)c(OC)c4)n3)c2)CC1', 'SK-MEL-28 melanoma', '1 (yes)'),
  ('CC[C@H]1OC(=O)[C@H](C)[C@@H](O[C@H]2C[C@@](C)(OC)[C@@H](O)[C@H](C)O2)[C@H](C)[C@@H](O[C@@H]2O[C@H](C)C[C@H](N(C)C)[C@H]2O)[C@](C)(OC)C/C(C)=C2/O[C@@]1(C)C=C2C', 'SK-MEL-28 melanoma', '1 (yes)'),
  ('CC(=O)Nc1ccc(S(=O)(=O)c2ccnc3cc(Cl)ccc23)cc1', 'SK-MEL-28 melanoma', '0 (no)'),
  ('CC(C)(C)OC(=O)N1CCc2c(sc3ncnc(N/N=C/c4cccc5ccccc45)c23)C1', 'SK-MEL-28 melanoma', '1 (yes)'),
  ('COc1cc2cc(Oc3ccc(NC(=O)Nc4ccc(Cl)c(Cl)c4)cc3)c(C)nc2cc1OC', 'SK-MEL-28 melanoma', '1 (yes)');

A record lists CC(CN(C)C)Oc1ccc(OC(C)CN(C)C)c2c1C(=O)c1ccccc1C2=O (stereo not drawn) . Is its growth below 50%?
0 (no)

# strict comparison: is reported growth < 50%? input = `CNS(=O)(=O)Oc1ccc(-c2ccc3occc3c2)cc1`
0 (no)

Take the compound COc1cc2c(cc1OC)C(C(CCCCCC(CCC(C)C)C1NCCc3cc(OC)c(OC)cc31)CCC(C)C)NCC2 (stereo not drawn) and say whether its growth is less than 50%.
1 (yes)

Does this compound meet the criterion growth < 50%? `CC(C)(C)c1ccc(S(=O)(=O)N[C@H]2CC[C@H]3[C@@H]4CCc5cc(OS(=O)(=O)O)ccc5[C@H]4CC[C@]23C)cc1`
0 (no)

---

System: A549/ATCC NSCLC
Test description: NCI-60 one-dose screen, 48 h
Condition: 10 µM
About 83,000 compounds went through this panel and 20% of them were active in at least one assay; those are over-represented in the sample as a whole. The source made the active and inactive calls. The calls were made as follows: active = growth percent below 10; inactive = the rest.
Can you answer with just one of these options? yes (1) for active, no (0) for inactive

INSERT INTO assay_data (smiles_entry, cat) VALUES
  ('CNC(=O)c1cc(Oc2ccc3c(c2)sc2nc(-c4ccc(N)cc4)cn23)ccn1', 'no (0)'),
  ('O=C1/C=C/[C@@H](O)[C@@H]2C[C@@H](O)C[C@H]2/C=C/CCC[C@H](CCc2ccc(NC(=S)Nc3ccc4c(c3)C(=O)OC43c4ccc(O)cc4Oc4cc(O)ccc43)cc2)O1', 'no (0)'),
  ('CN(C)CCCSc1ccccc1NC1=C(Cl)C(=O)C(Nc2ccccc2SCCCN(C)C)=C(Cl)C1=O', 'no (0)'),
  ('O=C(O)c1cn(C2CC2)c2cc(N3CCN(C(=O)c4cc(-c5ccc(Cl)cc5)nc5ccccc45)CC3)c(F)cc2c1=O', 'no (0)'),
  ('CC[C@H]1OC(=O)[C@H](C)[C@@H](O[C@H]2C[C@@](C)(OC)[C@@H](O)[C@H](C)O2)[C@H](C)[C@@H](O[C@@H]2O[C@H](C)C[C@H](N(C)C)[C@H]2O)[C@](C)(OC)C/C(C)=C2/O[C@@]1(C)C=C2C', 'no (0)'),
  ('O=C(/C=C/C=C/c1c(C2CC2)nc2ccccc2c1-c1ccc(F)cc1)c1cccs1', 'no (0)'),
  ('CNC(=O)c1c(I)c(NC(C)=O)c(I)c(C(=O)O)c1I', 'no (0)'),
  ('Cc1cc(SC#N)cc(C(C)(C)C)c1O', 'no (0)'),
  ('CC(C)(C)c1nn(-c2ccccc2)c2c1CC1(CN2Cc2ccc(Cl)cc2)C(=O)c2ccccc2C1=O', 'no (0)'),
  ('CCn1cc(C(=O)O)c(=O)c2cc(F)c(N3CCNCC3)cc21', 'no (0)');

Which outcome did this test record for the compound `CC(C)Cc1ccc([C@H](C)C(=O)O)cc1` ?
no (0)

Can you look up the reported call for `CSc1nc2c(c(=O)n1C)CN(Cc1ccccc1)C(=O)CN2` for me?
no (0)

GET /call?item= `Cc1ccc(NC(=S)NNC(=S)Nc2ccc(C)cc2)cc1` returns the recorded outcome of this test.
no (0)

Hi team, can someone confirm the assay call for `COc1cc2cc(Oc3ccc(NC(=O)c4ccccc4)cc3)c(C)nc2cc1OC` ?
no (0)

Hi, do you know how `CCOC(=O)c1cc(C(=O)c2cc(OC)c(OC)c(OC)c2)n2nc(C)ccc12` came out in this test?
no (0)

I would be grateful if you could indicate the recorded call for `COc1ccc(-c2nc(-c3nc4ccc(C)cc4[nH]3)cc3c2[nH]c2ccccc23)cc1` .
no (0)

# lookup: test call for `CN(C)CCOc1ccccc1NC1=C(Cl)C(=O)C(Nc2ccccc2OCCN(C)C)=C(Cl)C1=O`
no (0)

Per the records of this test, what outcome belongs to `COc1ccc(-c2cc(-c3ccccc3)nc(SCCCC(=O)NO)n2)cc1` ?
yes (1)

---

# growth listing for each entry below
Tested on: OVCAR-3 ovarian
Test description: NCI-60 one-dose screen, 48 h (100 = growth as untreated, 0 = no growth, -100 = all killed)
Condition: 10 µM
About 83,000 compounds went through this panel and 20% of them were active in at least one assay; those are over-represented in the sample as a whole.
Report the figure in % without appending any unit label.

INSERT INTO measurements (molecule, numeric_result) VALUES
  ('COc1ccc(-c2cc(-c3ccc(OC)c(OC)c3)nc(SCCCC(=O)NO)n2)cc1', -24),
  ('O=S(=O)(Oc1ccc(-c2ccc3sccc3c2)cc1)c1ccccc1', 110);

Looking up `Nc1cc(Br)c(-c2nn3c(CCC(=O)c4nc5ccccc5[nH]4)nnc3s2)c(Br)c1` , I see its growth listed as 105

The reported value for `Cc1ccc(C(=O)/C=C/c2ccccc2)s1` in terms of growth is 89.6

Measured growth, `COc1cc(-c2nn(-c3cccc(NC(=O)CCNc4ccc(N5CCOCC5)cc4)c3)cc2-c2ccncc2)ccc1Cl` : 14.1

Item: `N#Cc1cnn(C(=O)c2nn(-c3ccc(Cl)cc3)cc2O)c1N` | growth: -0.517

Field growth (entry `COc1cc(-c2ccc(N=Nc3ccc4c(S(=O)(=O)O)ccc(N)c4c3O)c(OC)c2)ccc1N=Nc1ccc2c(S(=O)(=O)O)ccc(N)c2c1O` ) reads 109

growth in this record for `CCOc1ccccc1/C=N\N=C\c1ccccc1O` : 88.9

Sample O=c1[nH]c(=O)n(C2C[C@H](O)[C@@H](CO)O2)cc1C(F)(F)F (stereo partly specified) ; growth observed: 117

---

Tested on: CAKI-1 renal
Test description: NCI-60 one-dose screen, 48 h (100 = growth as untreated, 0 = no growth, -100 = all killed)
Condition: 10 µM
About 83,000 compounds went through this panel and 20% of them were active in at least one assay; those are over-represented in the sample as a whole.
Measurement label: growth (%)
Report as a plain number; the unit % is understood.

INSERT INTO results (molecule, measurement_label, numeric_result) VALUES
  ('CC(=O)Nc1cc2c(cc1Cl)Cc1cc(Cl)ccc1-2', 'growth', 75.6),
  ('O=S(=O)(NCCCNc1nccc(-c2cn(-c3ccccc3)nc2-c2ccc(Cl)c(O)c2)n1)c1ccccc1', 'growth', 90.4),
  ('O=C1/C(=C/c2ccc3c(c2)OCO3)SC(=S)N1C1c2ccccc2Oc2ccccc21', 'growth', 92.8),
  ('O=C(CCCNC(=O)c1nc(-c2ccccc2)n(-c2ccccc2)n1)NO', 'growth', 98),
  ('O=C(Nc1cc(Cl)cc2c1-c1ccc(Cl)cc1C2O)C(Cl)Cl (stereo not given)', 'growth', 67.5),
  ('O=C(N/N=C/c1cc([N+](=O)[O-])ccc1O)c1cccc2ccccc12', 'growth', 19.9),
  ('COc1ccc(/C=C/C(=O)C(=O)/C=C/c2ccc(OC)c(OC)c2)cc1OC', 'growth', 84.3),
  ('O=C(CN1CCN(C(=O)c2ccccc2)CC1)Nc1ccccc1SCc1ccccc1', 'growth', 71.8),
  ('Cc1[nH]c2ccccc2c1/C=N/Nc1ncnc2sc3c(c12)CCN(CC(=O)OC(C)(C)C)C3', 'growth', 47.2);

Proceed to the following item.
Entry `Clc1ccc(C2=NN=C3C(Cc4ccccc4)=Nc4ccccc4N3C2)cc1` , growth reported as 55.4
